# protocol notes: Hematology assays after subcutaneous administration in CD-1 mice (Example 6)
# Assay type: in vivo
# measurement setup: 50 mg/kg subcutaneous twice weekly for 7 weeks, n.d. = below detection levels
Strand notation (5' to 3'): a small letter for the sugar, then the base; units joined by * are phosphorothioate-linked, units joined directly phosphodiester-linked; [ ] holds rarer units or linkages, { } end groups; capitals alone tell only the bases. k = constrained ethyl (cEt); [5mC] = 5-methylcytosine; d = 2'-deoxy (DNA)
Please go through the items and note down their Basophils.

Request: For 830025 (antisense TTTGTAAATCGAAAGC; 3-10-3 cEt gapmer, further chemistry not given here) [compound 830025] , what is its reported Basophils?
Response: 0.6 10^3/μL

Request: Can you check 790615 (CCAATGAGAATGCTTC; 3-10-3 cEt gapmer, further chemistry not given here) [compound 790615] next?
Response: 0.1 10^3/μL

Request: Can you check 830121 (AGAATCAAGCCCTGGC; 3-10-3 cEt gapmer, further chemistry not given here) [compound 830121] next?
Response: 0.3 10^3/μL

Request: Can you check 799144 (antisense kT*kT*kG*dG*dG*dT*dT*dA*dT*dG*dA*d[5mC]*dG*kG*kA*k[5mC]) [compound 799144] next?
Response: 0.1 10^3/μL

---

# Test system: human SMAD7 mRNA
# protocol notes: Antisense inhibition of human SMAD7 mRNA expression in Hep3B cells by 3-10-3 cEt gapmers, 10,000 nM, electroporation (Example 2)
# Type: cell-based
# measurement setup: Hep3B cells, electroporation with 10,000 nM antisense oligonucleotide, approximately 24 hours, RTS5062, percent inhibition of SMAD7 mRNA relative to untreated control cells
# Description: Antisense oligonucleotides were designed to target human SMAD7 mRNA and were tested for their effects on SMAD7 mRNA expression in vitro. […] After a treatment period of approximately 24 hours, RNA was isolated from the cells and SMAD7 mRNA levels were measured by quantitative real-time PCR. […] SMAD7 mRNA levels were adjusted according to total RNA content, as measured by RIBOGREEN®. […]
Strand notation (5' to 3'): a small letter for the sugar, then the base; units joined by * are phosphorothioate-linked, units joined directly phosphodiester-linked; [ ] holds rarer units or linkages, { } end groups; capitals alone tell only the bases. k = constrained ethyl (cEt); [5mC] = 5-methylcytosine; d = 2'-deoxy (DNA)
recorded endpoint: % Inhibition (%)
// note: answer is a bare numeric in %

Request: For 799295 (antisense kG*kA*k[5mC]*dT*d[5mC]*dG*d[5mC]*dG*dG*d[5mC]*d[5mC]*dT*dT*kG*kA*kT) [compound 799295] , what is its reported % Inhibition?
Response: 30

Request: Can you check 799292 (antisense kT*kG*kA*dT*dG*d[5mC]*dT*dG*dA*dT*dT*dA*dT*kT*kA*kA) [compound 799292] next?
Response: 19

Request: Can you check 799809 (antisense k[5mC]*kA*kA*dT*dA*d[5mC]*dT*dG*dA*dA*dA*dT*dG*kA*kG*k[5mC]) [compound 799809] next?
Response: 43

---

# Test system: human SMAD7 mRNA
# protocol notes: Antisense inhibition of human SMAD7 mRNA expression in Hep3B cells by 5-10-5 MOE gapmers, single concentration, electroporation, RT-PCR (Example 1, Study 1 and 2)
# Assay type: cell-based
# measurement setup: electroporation, 15,000 nM antisense oligonucleotide (Study 2), 5-10-5 MOE gapmers targeting SEQ ID NO: 1 and 2
Strand notation (5' to 3'): a small letter for the sugar, then the base; units joined by * are phosphorothioate-linked, units joined directly phosphodiester-linked; [ ] holds rarer units or linkages, { } end groups; capitals alone tell only the bases. e = 2'-O-(2-methoxyethyl) (MOE); [5mC] = 5-methylcytosine; d = 2'-deoxy (DNA)
recorded endpoint: % inhibition of SMAD7 mRNA expression (%)
// note: answer is a bare numeric in %

Request: For 771906 (antisense eA*e[5mC]*e[5mC]*e[5mC]*eT*dT*dG*d[5mC]*dT*dG*dG*dT*d[5mC]*dT*d[5mC]*eT*eT*eG*eT*eT) [compound 771906] , what is its reported % inhibition of SMAD7 mRNA expression?
Response: 0

Request: Can you check 771698 (antisense e[5mC]*eA*e[5mC]*eA*e[5mC]*dT*d[5mC]*dT*d[5mC]*d[5mC]*d[5mC]*dA*dG*dG*dA*eG*eG*eG*eT*eA) [compound 771698] next?
Response: 43

Request: Can you check 771866 (antisense eG*e[5mC]*eA*eT*eT*dT*dT*dT*d[5mC]*dT*dG*dA*dA*d[5mC]*dA*eG*eA*eG*eT*e[5mC]) [compound 771866] next?
Response: 34

Request: Can you check 771953 (antisense eT*e[5mC]*eA*e[5mC]*e[5mC]*dA*dG*d[5mC]*dT*d[5mC]*dA*dT*d[5mC]*dT*d[5mC]*eT*e[5mC]*eA*eG*eG) [compound 771953] next?
Response: 42

Request: Can you check 771601 (antisense eG*eA*eT*eG*eG*d[5mC]*d[5mC]*dA*dA*dA*dA*dA*dA*dG*dA*eA*eA*eG*eA*e[5mC]) [compound 771601] next?
Response: 13
